Kindly supply the reported Z score Rep1 values for the records listed here.
- experimental_system: UniProt:Q99ZW2
- Sequence (Q99ZW2 whole entry): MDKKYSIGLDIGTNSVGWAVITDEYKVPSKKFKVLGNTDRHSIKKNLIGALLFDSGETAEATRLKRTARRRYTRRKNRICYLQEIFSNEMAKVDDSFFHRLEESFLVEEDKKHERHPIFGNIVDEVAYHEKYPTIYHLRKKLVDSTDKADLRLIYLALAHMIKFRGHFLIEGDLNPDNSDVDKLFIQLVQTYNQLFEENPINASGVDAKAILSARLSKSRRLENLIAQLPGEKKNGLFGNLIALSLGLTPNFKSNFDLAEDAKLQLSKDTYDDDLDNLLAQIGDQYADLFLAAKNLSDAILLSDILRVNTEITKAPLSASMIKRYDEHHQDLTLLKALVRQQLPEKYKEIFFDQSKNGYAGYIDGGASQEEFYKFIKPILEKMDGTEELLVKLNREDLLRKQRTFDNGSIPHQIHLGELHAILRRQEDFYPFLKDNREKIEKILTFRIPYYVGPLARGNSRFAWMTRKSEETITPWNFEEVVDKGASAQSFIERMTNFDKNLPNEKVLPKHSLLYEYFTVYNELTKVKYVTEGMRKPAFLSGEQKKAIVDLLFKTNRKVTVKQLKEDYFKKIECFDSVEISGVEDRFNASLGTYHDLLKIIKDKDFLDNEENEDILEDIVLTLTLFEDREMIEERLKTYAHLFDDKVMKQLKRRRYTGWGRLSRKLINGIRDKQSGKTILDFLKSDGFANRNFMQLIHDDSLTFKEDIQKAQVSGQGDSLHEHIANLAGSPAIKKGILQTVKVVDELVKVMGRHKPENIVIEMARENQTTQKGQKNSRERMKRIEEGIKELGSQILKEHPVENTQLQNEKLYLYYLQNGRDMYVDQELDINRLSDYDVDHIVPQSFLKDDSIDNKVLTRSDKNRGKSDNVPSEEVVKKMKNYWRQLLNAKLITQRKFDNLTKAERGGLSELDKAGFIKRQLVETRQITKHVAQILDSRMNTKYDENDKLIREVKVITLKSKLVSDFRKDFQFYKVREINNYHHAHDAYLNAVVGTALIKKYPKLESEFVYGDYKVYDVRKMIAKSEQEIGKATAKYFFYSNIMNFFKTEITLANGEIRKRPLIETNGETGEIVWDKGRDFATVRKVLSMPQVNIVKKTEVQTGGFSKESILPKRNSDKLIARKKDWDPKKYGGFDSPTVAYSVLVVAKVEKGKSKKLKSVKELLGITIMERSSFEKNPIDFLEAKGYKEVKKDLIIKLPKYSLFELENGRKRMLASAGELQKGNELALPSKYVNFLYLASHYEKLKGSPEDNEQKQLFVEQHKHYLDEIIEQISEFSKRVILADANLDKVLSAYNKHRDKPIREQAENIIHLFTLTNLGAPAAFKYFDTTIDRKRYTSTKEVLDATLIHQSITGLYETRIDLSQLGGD
- measurement_notes: eGFP disruption assay, SpCas9, U2OS.eGFP.PEST cells
- Type: cell-based
- experimental_context: replicate 1
// response body must contain only the number

Prompt: I would be grateful if you could share the reported Z score Rep1 for NC(=O)c1sc(=S)n2c1[nH]c(=O)c1ccc(Cl)cc12 .
Completion: −0.66

Prompt: I would be grateful if you could share the reported Z score Rep1 for Cc1ccccc1OCc1nn2c(C(C)C)nnc2s1 .
Completion: −3.41

Prompt: I would be grateful if you could share the reported Z score Rep1 for Nc1c(C(=O)N2CCCCC2)sc(=S)n1Cc1ccccc1 .
Completion: −1.57

Prompt: I would be grateful if you could share the reported Z score Rep1 for Fc1ccc(-c2nn3c(-c4ccncc4)nnc3s2)cc1Br .
Completion: −0.93

Prompt: I would be grateful if you could share the reported Z score Rep1 for Cc1nn(-c2ccccc2)c(C)c1CCc1nn2c(-c3cccc(F)c3)nnc2s1 .
Completion: −2.61

Prompt: I would be grateful if you could share the reported Z score Rep1 for Clc1cccc(-c2nnc3sc(-c4ccc5ccccc5n4)nn23)c1 .
Completion: −1.24

Prompt: I would be grateful if you could share the reported Z score Rep1 for COc1ccc(-c2cc(N3CCN(C(=O)c4ccc(C(C)(C)C)cc4)CC3)ncn2)cc1 .
Completion: −0.67

Prompt: I would be grateful if you could share the reported Z score Rep1 for Nc1c(C(=O)NCC2CCCO2)sc(=S)n1-c1ccc(Cl)cc1 (centres unmarked) .
Completion: −0.57
